assay: Growth inhibition of human HSC3 cells after 24 hrs by Clonogenic cell survival assay; assay type: functional, cell-based; settings: HSC-3, 24 h
Measure Name: EC50

Data request, read-out EC50, for CC(C)(O)[C@H]1CC[C@H](Nc2ccn3ncc(-c4cccc(Cl)c4)c3n2)CC1
600 nM

----------
target: Serine/threonine-protein kinase pim-2 (Homo sapiens); assay: Inhibition of Pim2 (unknown origin) using luciferase-luciferin based ATP detection reagent by Kinase-Glo assay; settings: read-out: IC50
Sequence (Q9P1W9 whole entry): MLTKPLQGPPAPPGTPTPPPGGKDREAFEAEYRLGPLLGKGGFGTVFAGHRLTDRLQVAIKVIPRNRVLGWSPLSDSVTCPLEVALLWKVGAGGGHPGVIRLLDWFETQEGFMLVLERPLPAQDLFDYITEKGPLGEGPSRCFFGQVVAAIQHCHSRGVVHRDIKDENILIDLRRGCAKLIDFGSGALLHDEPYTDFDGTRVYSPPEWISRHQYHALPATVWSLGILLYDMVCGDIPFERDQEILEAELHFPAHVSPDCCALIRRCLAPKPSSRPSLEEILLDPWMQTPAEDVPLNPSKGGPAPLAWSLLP
Measure Name: IC50 (nM)
Give bare numbers, in nM.

Examples with answers:
> print(dat)
                           structure.string                                    system  readout.units  quantitative.result
1  N[C@H]1CCCN(c2ccn3ncc(-c4cccc(OC(F)(F)F)c4)c3n2)C1  Serine/threonine-protein kinase pim-2 (Homo sapiens)             nM                  987
2  O[C@H]1CC[C@H](Nc2ccn3ncc(-c4cccc(Cl)c4)c3n2)CC1  Serine/threonine-protein kinase pim-2 (Homo sapiens)             nM                  506
3  O=S1(=O)CCC(CNc2ccn3ncc(-c4cccc(OC(F)(F)F)c4)c3n2)CC1  Serine/threonine-protein kinase pim-2 (Homo sapiens)             nM                 8160
4  CO[C@H]1CC[C@H](Nc2ccn3ncc(-c4cccc(C(F)(F)F)c4)c3n2)CC1  Serine/threonine-protein kinase pim-2 (Homo sapiens)             nM                 4660

Now, please, on to the next compound.
Data request, read-out IC50, for N[C@H]1CC[C@H](Nc2ccn3ncc(-c4cccc(Cl)c4)c3n2)CC1
732

Provenance of the data: ChEMBL document CHEMBL3351833
